Data origin, for the record: PubChem BioAssay

test: S. cerevisiae growth inhibition in restrictive medium, OD615, pilot screen, restrictive growth control, yeast lifespan reduction project (AID 706); settings: OD615, 48 h, at 10 µM, stronger effect = higher value;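 also: modified DeaD lifespan yeast strain shifted to restrictive glucose medium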
Listed molecules paired with reported growth inhibition
Form entry: value (%) — number only.

Worked examples follow.
1) O=C1O/C(=C\C(=O)N2CCOCC2)c2ccccc21 ... 2.46
2) COc1ccc(CNc2nc3c(c(=O)[nH]c(=O)n3C)n2Cc2ccccc2C)cc1 ... -13.7
3) Cn1c(=O)c2cc(S(=O)(=O)NC(C(=O)Nc3cccnc3)c3ccccc3)ccc2n(C)c1=O (stereo unspecified) ... -1.8

Suppose we examine the molecule CCOC(=O)c1sc2nc(NC(=O)C3CCCCC3)sc2c1C ; what growth inhibition value has been reported?
-7.62

Report growth inhibition for CCN(CC)CCN1C(=O)c2oc3ccc(F)cc3c(=O)c2C1c1ccncc1 (stereo unspecified) please.
-0.92

Name the recorded growth inhibition for Cc1cc(C)n2nc(S(=O)(=O)N(C)c3ccccc3)nc2n1 .
-13.7

Item under review: COC(=O)c1ccccc1NC1c2ccccc2C(=O)N1c1cccnc1 (stereo unspecified) . Reported growth inhibition?
3.47

Any idea what its growth inhibition is? The molecule is COc1ccccc1NC1=C(C)C(=O)CC1
-11.9

Sample COc1ccc(CCNC(=O)c2cnn3ccccc23)c(OC)c1OC — what was its growth inhibition?
-2.3

Name the reported growth inhibition value associated with the molecule O=C(CN1CCN(Cc2ccccc2)CC1)NCC1COc2ccccc2O1 (stereo unspecified)
-5.58

growth inhibition lookup needed for CCOC(=O)C1CCCN(C(=O)Cn2nc(Cc3cccnc3)c3ccccc3c2=O)C1 (stereo unspecified) , thanks.
-7.92

----------
Each record here notes measured viability.
experiment: viability of HCT116 without oncogenic beta-catenin – human colon tumor cells, pilot screen (AID 823); settings: HCT116 beta-catenin knockout viability, CellTiter-Glo, 60 h; at 10 µM; stronger effect = lower value;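 also: 0% = wells killed by 20 µM Hyamine and 100% = untreated DMSO cell wells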
Records with an inconclusive call do not appear.
Please give a number only; it is taken to be in %.

1) Oc1c(C(c2ccccc2)N2CCc3ccccc3C2)sc2ncnn12 (centres undefined) ... 97.1

Query (molecule): Cn1c(=O)cc(NCCc2ccccc2)[nH]c1=O ; field requested: viability
87.5

Name the recorded viability for FC(F)(F)COc1nc(N2CCCCC2)nc(N2CCNCC2)n1 .
85.5

----------
test: H69AR cell proliferation blockers – human, duplicate replicates, primary screen (AID 580); settings: H69AR lung tumor cells viability, ATP luminescence, 72 h; at 10 µM;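 also: 100% = mean luminescence of untreated wells and 0% = no signal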
Calls of active or inactive are those of the source.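 How the source made its calls: active means viability at or under a set limit in both replicates, limit being median viability minus 3 SD (cut at about 48% in these data, passing the limit was not always enough); inconclusive means at or under the limit in just one replicate; inactive means at or above the limit in both replicates.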
Please reply with one of these outcomes: True for active, False for inactive

1. COCCN1C=C(C(=O)OC)C(c2cc3c(cc2Br)OCO3)C(C(=O)OC)=C1 ... False
2. CN1CCN(CCCNC(=O)Cn2ncc3c4ccccc4n(C)c3c2=O)CC1 ... False

Please examine the following record next.
Test call, this molecule: Cc1cn2c(-c3ccc(Cl)cc3)nnc2s1
False

----------
assay: RAM signaling pathway blockade in yeast – S. cerevisiae, Pdr1DBD-CYC8 efflux-inhibited sensitized strain, primary screen (AID 1298);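 also: 0% = DMSO untreated cells without growth and 100% = 10 µM 1-NA-PP1 full growth; higher means more yeast growth rescued from 5-FOA killing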; settings: S. cerevisiae cbk1-as DSE1-URA3 strain, 5-FOA growth OD615, 2 d; at 50 µM; stronger effect = higher value
The following compounds are listed with their measured RAM network inhibition values.
Output spec: scalar in %, unitless text.

1) COc1cc2[nH]c(=O)n(CCCCCC(=O)N3CCN(c4ccccn4)CC3)c(=O)c2cc1OC ... 3.23
2) Cc1ccc(C2CC(c3cccc(C)c3)n3ncnc3N2)cc1 (stereo unspecified) ... 4.74
3) COc1ccc(NC(=O)CSc2nc3c(c(=O)n2-c2ccc(F)cc2)SCC3)cc1 ... 3.09
4) Cc1cc(=O)oc2cc(OCC(O)CN3CCN(c4ccc(F)cc4)CC3)ccc12 (stereo unspecified) ... -0.18
5) CCOc1ccc(NC2c3ccccc3C(=O)N2Cc2ccco2)cc1 (stereo unspecified) ... 5.57
6) CCCCCCSc1cc(C)nc2ncnn12 ... 0.21
7) CC1CC(C)CN(CCCNC(=O)Cc2c(C(=O)O)[nH]c3ccccc23)C1 (stereo unspecified) ... 1.78
8) c1ccc(-c2cn3cccnc3n2)cc1 ... 1.13

So what's the measured RAM network inhibition for this one? CCOC(=O)CC1C(=O)NCCN1Cc1cccc(OC)c1 (stereo unspecified)
1.79

I am curious: what RAM network inhibition value has been reported for CCOC(=O)C(C(=O)Nc1ccccc1)C1CCCCC1 (stereo unspecified) ?
3.67

Recorded RAM network inhibition for COc1ccccc1N(CC(O)CN1C(=O)NC(C)(C)C1=O)S(=O)(=O)c1ccc(C)cc1 (stereo unspecified) , please?
5.03

----------
assay: RAM pathway blockade in budding yeast – dse1pr::URA3 reporter, 5-FOA selection, pilot screen (AID 869);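 also: 0% = DMSO wells with no growth and 100% = 10 µM 1-NA-PP1 with full growth; RAM network block rescues cells from 5-FOA so hits raise OD615 growth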; settings: S. cerevisiae dse1pr::URA3 5-FOA growth, OD615, 2 d; at 10 µM; stronger effect = higher value; strain carries analog-sensitive mutant Cbk1 kinase
Quick rule: inhibition of at least 0.7% means yes, below that means no.

Is inhibition for Cc1cc2ccccc2n1CCNC(=O)C1CC1 at or above 0.7%?
no

# check: inhibition of CN(C)CCCN1C(=O)c2oc3ccc(Cl)cc3c(=O)c2C1c1cccnc1 (stereo unspecified) is greater than or equal to 0.7%
no

Does CSc1cccc(NS(=O)(=O)c2ccccc2)c1 have a reported inhibition of at least 0.7%?
yes

Hi, just wondering whether O=C(CSc1nnnn1-c1ccccc1)Nc1ccc(Cl)cc1 shows inhibition of 0.7% or higher.
yes

Could you verify whether the entry CCN(CC)CCNC(=O)c1cc2c(-c3ccc(Cl)cc3)nn(C)c2s1 shows inhibition of no less than 0.7%?
yes

Quick check: does CCOC(=O)N1CCC(N2C(=O)c3ccccc3C2Nc2cc(Cl)c(OC)cc2OC)CC1 (stereo unspecified) have inhibition greater than or equal to 0.7%?
no

----------
assay: MRP1 drug-resistance reversers in H69AR cells – cell-based, doxorubicin co-treatment, pilot screen (AID 601); settings: H69AR cells + 2 uM doxorubicin, CellTiter-Glo, 72 h; measured here: viability with 2 uM doxorubicin; at 10 µM; stronger effect = lower value
Classification by viability follows these ranges: Low: < 80%; Mid: ≥ 80% and < 90%; High: ≥ 90%

Solved cases below.
1) CCC(=O)N1CCN(c2nc(-c3ccccc3)c3c(c2C#N)CCCC3)CC1 ... Mid
2) CCOC(=O)CCCOC(=O)c1ccc(S(=O)(=O)N(C)C)cc1 ... High
3) CCOC(=O)N1CCC(c2cc(=O)n3[nH]cc(C(=O)OC)c3n2)CC1 ... Mid

Okay, next one:
Class? Entry: c1ccc(-n2ncc3c(NC4CCCCCC4)ncnc32)cc1
Low

----------
assay: RAM pathway blockade in budding yeast – dse1pr::URA3 reporter, 5-FOA selection, pilot screen (AID 869);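 also: 0% = DMSO wells with no growth and 100% = 10 µM 1-NA-PP1 with full growth; RAM network block rescues cells from 5-FOA so hits raise OD615 growth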; settings: S. cerevisiae dse1pr::URA3 5-FOA growth, OD615, 2 d; at 10 µM; stronger effect = higher value; strain carries analog-sensitive mutant Cbk1 kinase
test.readout: inhibition (%)
Give the number; % is assumed, so skip it.

1. Cc1cc(C)nc(/N=C2\NC(=O)CC(C(=O)O)N2c2ccc(Cl)cc2)n1 (stereo unspecified) ... 1.93
2. COc1ccc(/C=N/O)cc1COc1ccc(NC(C)=O)cc1 ... 0.83
3. COc1ccc(S(=O)(=O)Nc2ccc(F)c(Cl)c2)cc1OC ... 0.595
4. C/C=C/COC(=O)c1[nH]c2c(c1C)C(=O)CC(c1ccc(N(C)C)cc1)C2 (stereo unspecified) ... 1.9
5. O=C(Cn1cc2c(n1)CCCC2)NCCc1ccccc1 ... 1.38

Requested field: inhibition. Item: CCOC(=O)C(C(=O)OCC)C(C)C#CCN1CCCCC1 (stereo unspecified)
-0.12

Give its inhibition value. Item: COc1ccc(-c2nc(CS(=O)CC(=O)NCC3CCCO3)c(C)o2)cc1 (stereo unspecified)
-0.795

----------
test: viability of PTEN-null HCT116 cells – cell-based, HCT116 clonal line, CellTiter-Glo, pilot screen (AID 824); settings: HCT116 PTEN-deleted viability, 60 h, at 10 µM, stronger effect = lower value;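 also: 0% = 20 µM Hyamine control and 100% = vehicle cell control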
Inconclusive results are not listed.
test.readout: viability (%)
# unit: % | format: bare number

1) CCn1cc(C(=O)NCC2COc3ccccc3O2)c2cc(OC)c(OC)cc2c1=O (configuration not stated) ... 86.7
2) CCCn1cc(SCC(N)=O)c2ccccc21 ... 95.6
3) Cc1cc2ncn(C3CC(=O)N(Cc4ccc(N5CCCC5=O)cc4)C3=O)c2cc1C (configuration not stated) ... 98.5
4) CCOC(=O)C(C)(C)Sc1nc2c(cnn2-c2ccc(Cl)cc2)c(=O)[nH]1 ... 78.2

Requested read-out: viability. Entry: COc1ccc(-c2cc(C(F)(F)F)nc(S(C)(=O)=O)n2)cc1OC
48.7

Form field: reported viability of Cc1ccc(O)c(N=CC2=C(O)c3ccccc3C2=O)c1
64.2
